The entries below are paired with their reported cytotoxicity at 70.5 h.
- experiment-summary: Human HepG2 cell viability assay in 384 well format
- Type: toxicity, cell-based
- Design: dose 125 nL, time 70.5 hour; concentration not given beside the values
- run-conditions: HepG2 cells, read-out: Inhibition
Give the value, in units of %, as a plain number.

Requested field: cytotoxicity at 70.5 h. Item: Cc1cc(C)n(CC(=O)N2CCC(c3ccn4nccc4n3)CC2)n1
26.6

Requested field: cytotoxicity at 70.5 h. Item: Cc1ccc(C(=O)NCCCN(C(C)C)S(C)(=O)=O)c(=O)[nH]1
-5.61

Requested field: cytotoxicity at 70.5 h. Item: CC(C)C(=O)N1CCN(S(=O)(=O)C2CC2)CC2(CC(=O)N(C)C2)C1 (stereo unspecified)
-6.71

Requested field: cytotoxicity at 70.5 h. Item: CN(C)C(=O)N1CCC(c2nc3ccc(N4CCCC4)cn3n2)CC1
-4.23

Requested field: cytotoxicity at 70.5 h. Item: CCN(c1ccc(C(=O)N2CCCCC2)cc1)S(=O)(=O)CC
-9.5

Requested field: cytotoxicity at 70.5 h. Item: CNC(=O)[C@@H]1C[C@@H](N)CN1C1CCN(c2ccccc2F)CC1
-7.57

Requested field: cytotoxicity at 70.5 h. Item: COC(=O)CC1CCN(C(=O)c2ccc(C)cc2)CC1
-4.4
